target: furin, P09958; test: furin cleavage Z-score vs untreated control; higher = more cleavage, active = 3.5 or more, inactive = 1 or less, 8 variable residues between constant flanks; details: 7.5 min;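 also: purified furin at 1:10 enzyme:substrate in 50 mM HEPES pH 7.5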
Sequence (P09958 whole entry): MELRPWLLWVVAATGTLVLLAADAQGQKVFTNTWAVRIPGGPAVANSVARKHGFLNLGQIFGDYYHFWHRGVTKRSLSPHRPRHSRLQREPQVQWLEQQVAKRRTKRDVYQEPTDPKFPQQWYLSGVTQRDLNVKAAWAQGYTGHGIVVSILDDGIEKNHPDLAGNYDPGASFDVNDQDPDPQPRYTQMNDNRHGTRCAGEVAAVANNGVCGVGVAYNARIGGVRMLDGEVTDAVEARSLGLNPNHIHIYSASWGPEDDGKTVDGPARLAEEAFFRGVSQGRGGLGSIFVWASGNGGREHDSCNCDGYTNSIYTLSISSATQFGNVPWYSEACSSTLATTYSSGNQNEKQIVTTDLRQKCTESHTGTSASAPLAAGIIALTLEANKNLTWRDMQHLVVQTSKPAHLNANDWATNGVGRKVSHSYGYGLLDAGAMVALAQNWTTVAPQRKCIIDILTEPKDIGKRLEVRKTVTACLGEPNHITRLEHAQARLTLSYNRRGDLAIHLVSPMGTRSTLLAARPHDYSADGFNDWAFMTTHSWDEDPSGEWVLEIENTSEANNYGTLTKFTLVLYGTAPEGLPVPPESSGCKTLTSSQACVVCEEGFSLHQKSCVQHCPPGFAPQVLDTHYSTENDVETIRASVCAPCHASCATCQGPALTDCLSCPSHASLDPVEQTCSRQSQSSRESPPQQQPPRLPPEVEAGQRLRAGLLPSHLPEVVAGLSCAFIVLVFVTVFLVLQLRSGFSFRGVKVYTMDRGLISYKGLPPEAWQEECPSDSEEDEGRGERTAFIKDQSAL
The list shows a part of the results. The hit rate among all sequences tested is not known here.
Overview of reported furin cleavage Z-score across a group of sequences:
experimental-readout: furin cleavage Z-score

• CAKVPAAYAAAGNASASA [HC780] = 0.0632
• CATTLCSGSWAGNASASA [HC1865] = -0.162
• CAKPDYEPPVAGNASASA [HC1312] = 0.808
• CAELTTPCSGAGNASASA [HC1965] = -0.879
• CAIVSTAAQTAGNASASA [HC691] = -1.17
• CADLVGWPAPAGNASASA [HC714] = -0.648
• CAGEECSQHLAGNASASA [HC1676] = 0.0385
• CATYVYNHLTAGNASASA [HC634] = -0.232
• CACYSIEPLDAGNASASA [HC1596] = -0.277
• CADGRRFRQAAGNASASA [FS-1668] = -1.15
• CASHSRVRRAAGNASASA [FS-294] = 11.4
• CAHYQDVLKEAGNASASA [HC1402] = -0.724
• CAANRRMKRIAGNASASA [FS-750] = 7.06
• CAKVPCHRPSAGNASASA [HC2314] = 1.64
• CAALGRKARAAGNASASA [FS-115] = 6.64

meta.source: the supplement of paper PMC3545927
